meta.source: the supplement of paper PMC9732359

- ASSAY_COMMENT: protein stability index of a GFP-peptide fusion (yeast GPS) (PSI 1-4); higher = more stable; sorted into four equal gates, so the index is relative within each strain
- CONDITION_SUMMARY: pdr5∆
Rule: protein stability index under 2 gives 0, otherwise 1.

                    residues  assigned_label
0   GPSVESYELRNTTTYKS [SNF5]               1
1   TINEMMKHLGRSEGNPV [FAS2]               1
2   FTNRSTMMANFEEWIKM [BRN1]               1
3   QIVPYIEKLTDGHLRAP [BRR2]               1
4    ILRSIPDKLLGVILMFA [COB]               0
5   NCFFDVIVPQIVLDEVR [DIS3]               0
6   PAWRVWLNFLRGTIPLL [PRP8]               0
7  SQLKKSKAQQKTAEQVA [RPL7A]               1
